The values you see were collected from patent US20240247031A1.

system: LNCaP; assay: cells; assay type: cell-based, human; conditions: human, 48 h
Where a SMILES comes first, the peptide text is derived from it. [ ]: non-standard residue; d: D form. pGlu = O=C1CC[C@@H](C(=O)O)N1
Exercise: state measured Cytotoxicity (IC50) LNCaP for each of the compounds provided.
Numbers only, in µg/mL.

| Compound | Tgt | Cytotoxicity (IC50) LNCaP / µg/mL |
| --- | --- | --- |
| CC(C)C[C@H](NC(=O)[C@H](C)NC(=O)[C@@H]1CCCN1C(=O)[C@H](CCCNC(=N)N)NC(=O)[C@H](C)NC(=O)[C@@H](N)CCC(=O)O)C(=O)N[C@@H](CC(C)C)C(=O)N[C@@H](CO)C(=O)N[C@H](C(=O)N[C@@H](CCCNC(=N)N)C(=O)N[C@@H](Cc1ccccc1)C(=O)N[C@@H](CCCNC(=N)N)C(=O)N1CCC[C@H]1C(=O)N[C@@H](CCCCN)C(=O)O)[C@@H](C)O [HS1005] (H-EARPALLSTRFRPK-OH; N-terminus and C-terminus assumed) | LNCaP | 11.23 |
| CCNC(=O)[C@@H]1CCCN1C(=O)[C@@H](NC(=O)[C@H](Cc1ccccc1)NC(=O)[C@H](C)NC(=O)[C@H](CC(C)C)NC(=O)[C@H](CCCNC(=N)N)NC(=O)[C@H](Cc1ccc(O)cc1)NC(=O)[C@H](CO)NC(=O)[C@H](Cc1c[nH]c2ccccc12)NC(=O)[C@H](Cc1c[nH]cn1)NC(=O)[C@@H]1CCC(=O)N1)[C@@H](C)CC [HS1004] ([pGlu]HWSYRLAFIP-NHEt; C-terminus assumed) | LNCaP | 9.97 |

Challenge: What value of Cytotoxicity (IC50) LNCaP has been recorded for this entry: CCNC(=O)[C@@H]1CCCN1C(=O)[C@@H](NC(=O)[C@H](Cc1ccccc1)NC(=O)[C@H](CCCNC(=N)N)NC(=O)[C@H](CC(C)C)NC(=O)[C@H](CCCNC(=N)N)NC(=O)[C@H](Cc1ccc(O)cc1)NC(=O)[C@H](CO)NC(=O)[C@H](Cc1c[nH]c2ccccc12)NC(=O)[C@H](Cc1c[nH]cn1)NC(=O)[C@@H]1CCC(=O)N1)[C@@H](C)CC [HS1002]
Response given: 6.83

---

system: PC3; assay: MTT cytotoxicity on various cancer cells (Table 1); assay type: cell-based, human; settings: human, 48 h
Where a SMILES comes first, the peptide text is derived from it. [ ]: non-standard residue; d: D form. pGlu = O=C1CC[C@@H](C(=O)O)N1
Property Measured: Cytotoxicity (IC50) PC3 (µg/mL)
Numbers only, in µg/mL.

| Compound | Tgt | Cytotoxicity (IC50) PC3 / µg/mL |
| --- | --- | --- |
| CCNC(=O)[C@@H]1CCCN1C(=O)[C@@H](NC(=O)[C@H](Cc1ccccc1)NC(=O)[C@H](C)NC(=O)[C@H](CC(C)C)NC(=O)[C@H](CCCNC(=N)N)NC(=O)[C@H](Cc1ccc(O)cc1)NC(=O)[C@H](CO)NC(=O)[C@H](Cc1c[nH]c2ccccc12)NC(=O)[C@H](Cc1c[nH]cn1)NC(=O)[C@@H]1CCC(=O)N1)[C@@H](C)CC [HS1004] ([pGlu]HWSYRLAFIP-NHEt; C-terminus assumed) | PC3 | 16.49 |

As a next step, examine the compound that follows.
Challenge: // returns reported Cytotoxicity (IC50) PC3 for input CC(C)C[C@H](NC(=O)[C@H](C)NC(=O)[C@@H]1CCCN1C(=O)[C@H](CCCNC(=N)N)NC(=O)[C@H](C)NC(=O)[C@@H](N)CCC(=O)O)C(=O)N[C@@H](CC(C)C)C(=O)N[C@@H](CO)C(=O)N[C@H](C(=O)N[C@@H](CCCNC(=N)N)C(=O)N[C@@H](Cc1ccccc1)C(=O)N[C@@H](CCCNC(=N)N)C(=O)N1CCC[C@H]1C(=O)N[C@@H](CCCCN)C(=O)O)[C@@H](C)O [HS1005] (H-EARPALLSTRFRPK-OH; N-terminus and C-terminus assumed)
Response given: 13.31
